Reported Specific activities of selected thioesterases on Crotonyl-CoA values for the following molecules.
# PROCEDURE SUMMARY: thioesterase activity (production of TNB at 412 nm)
# Type: biochemical
# STUDY CONDITIONS: crude cell extract; 200 μM substrate; expressed from pCA24N
Return type: number; implicit unit μmol/mg protein/min.

Use the examples below as a reference point.
>>> recorded_value("YbgC: E. coli Acyl-CoA thioesterase (protein, UniProt P0A8Z3 1-134, looked up) Acyl-CoA thioester hydrolase …: MNTTLFRWPVRVYYEDTDAGGVVYHASYVAFYERARTEMLRHHHFSQQALMAERVAFVVRKMTVEYYAPARLDDMLEIQTEITSMRGTSLVFTQRIVNAENTLLNEAEVLVVCVDPLKMKPRALPKSIVAEFKQ")
0.006
>>> recorded_value("TesA: E. coli multifunctional acyl-CoA thioesterase I and protease I and lysophospholipase L1 (protein, UniProt P0ADA1 27-208, looked up) Thioesterase 1/protease …: ADTLLILGDSLSAGYRMSASAAWPALLNDKWQSKTSVVNASISGDTSQQGLARLPALLKQHQPRWVLVELGGNDGLRGFQPQQTEQTLRQILQDVKAANAEPLLMQIRLPANYGRRYNEAFSAIYPKLAKEFDVPLLPFFMEEVYLKPQWMQDDGIHPNRDAQPFIADWMAKQLQPLVNHDS")
0.007

Answer with reported Specific activities of selected thioesterases on Crotonyl-CoA of YciA: E. coli acyl-CoA thioesterase (protein, UniProt P0A8Z0 1-132, looked up) Acyl-CoA thioester hydrolase …: MSTTHNVPQGDLVLRTLAMPADTNANGDIFGGWLMSQMDIGGAILAKEIAHGRVVTVRVEGMTFLRPVAVGDVVCCYARCVQKGTTSVSINIEVWVKKVASEPIGQRYKATEALFKYVAVDPEGKPRALPVE
0.27
